Assayed Target: T1, Sym-1705 (RSV-G type A central region peptide 145-201) (Respiratory syncytial virus type A, not fully specified; N-terminal biotin)
T1 construct: Synthetic peptide
T1 peptide: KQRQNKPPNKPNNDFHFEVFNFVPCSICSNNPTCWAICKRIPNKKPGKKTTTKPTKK
Experiment: ELISA, biotinylated peptide on avidin plate
Result Type: binding result

[
  {
    "Binder": "CB028.1 (antibody, V domains shown, Tested as human IgG from the pCP9-kappa vector) VH: QVQLVQSGAEVKKPGASVQVSCKTSGYTFSSYGISWVRQAPGQGPEWMGWISTHIGTTNYAQKLQGRVTMTTDTSTTTAYMELRSLRSDDTAVYYCARDLAKWYCSGDTCFCSGGRCYSDHWGQGTLVTVSS VL: DIQMTQSPSSLSASVGDRVTITCRASQSINDCLNWYQQKPGQAPKLLISAASNLQSGVPSRFSGSGSETDFTLTISSLQPEDFAAYYCQQSFSTPLTFGGGTKVEIK",
    "Test Value": "binds"
  },
  {
    "Binder": "CB073.1L (antibody, V domains shown, Tested as human IgG from the pCP9-lambda vector) VH: QVQLVESGGGVVQPGRSLRLSCAASGFTFYNYAVHWVRQAPGKGLEWVAVISHDGVNKDYADSVKGRITLSRDNSKNTVYLQLNSLRPEDTAVYYCARDRSYYFGGSVFHLYFDYWGQGTLVTVSS VL: QSVLTQPPSVSGAPGQRVIISCTGSSSNIGAGHDVHWYQQLPGTAPRLLIYANTNRPSGVPDRFSASKSGNSASLVITGLQAEDEADYFCQSHDSSLSGVLFGGGTKLTVL",
    "Test Value": "binds"
  },
  {
    "Binder": "CB076.2L (antibody, V domains shown, Tested as human IgG from the pCP9-lambda vector) VH: QVQLVQSGAEVKKPGSSVKVSCKTSGDTFSNYVVSWVRQAPGQGLEWMGGIIPMFGTTNYAQRFQGRVTISADESTSTAYMEMSSLKSEDTAVYYCARDRYYEVRAGGKVLNTYYYMDVWGKGTTVTVSS VL: SSELTQDPAVSVALGHTVRITCQGDSLRSYYTNWYQQKPGQAPVLVIFGEDNRPSGIPDRFSGSSSGDTASLTITGTQAEDEADYYCNSRDSSGNLWVFGGGTKLTVL",
    "Test Value": "binds"
  }
]
